Biological target: Cytochrome P450 2D6 (Homo sapiens) (UniProt P10635)
Sequence (P10635 whole entry, looked up): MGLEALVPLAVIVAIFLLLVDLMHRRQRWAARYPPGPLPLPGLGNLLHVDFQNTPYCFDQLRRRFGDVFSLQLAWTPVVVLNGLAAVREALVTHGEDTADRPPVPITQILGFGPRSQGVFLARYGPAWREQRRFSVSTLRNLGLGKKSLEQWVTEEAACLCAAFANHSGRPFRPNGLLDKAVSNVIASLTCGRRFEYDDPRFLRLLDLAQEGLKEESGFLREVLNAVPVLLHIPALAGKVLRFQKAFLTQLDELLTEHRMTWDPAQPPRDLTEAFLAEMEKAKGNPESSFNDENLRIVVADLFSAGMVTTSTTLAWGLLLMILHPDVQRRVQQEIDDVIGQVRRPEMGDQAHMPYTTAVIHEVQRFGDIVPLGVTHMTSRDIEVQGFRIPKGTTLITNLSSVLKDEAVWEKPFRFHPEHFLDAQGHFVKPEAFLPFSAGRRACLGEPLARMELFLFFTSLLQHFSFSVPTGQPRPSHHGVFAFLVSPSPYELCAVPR
Assay: Cytochrome panel assay with activity outcomes
Details: recombinant CYP, pro-luciferin dealkylation, luminescence, p450-cyp2d6; series mostly up to 57.1 µM
Description: The P450 gene superfamily is involved in the metabolism and clearance of xenobiotics. This assay used various human CYP P450 isozymes to measure the dealkylation of various pro-luciferin substrates to luciferin. The luciferin is then measured by luminescence after the addition of a luciferase detection reagent. […] Inhibitors and some substrates limit the production of luciferin, and decrease measured luminescence. […] 8, Detection, 1 sec, ViewLux luminescent read […]
About 2,600 (16%) of roughly 16,000 compounds were called active. Inconclusive results (about 20%) are left out. Only a sample is shown.

smiles repr	outcome
O=C(c1ccccc1)[C@@H]1O[C@H]1c1ccc(-c2ccccc2)cc1	inactive
Cc1cnc(C(=O)OCC(=O)NC(C)C)cn1	inactive
C/C=C\C[C@H](C)[C@H](O)[C@H]1C(=O)N[C@@H](CC)C(=O)N(C)CC(=O)N(C)[C@@H](CC(C)C)C(=O)N[C@@H](C(C)C)C(=O)N(C)[C@@H](CC(C)C)C(=O)N[C@@H](C)C(=O)N[C@@H](C)C(=O)N(C)[C@@H](CC(C)C)C(=O)N(C)[C@@H](CC(C)C)C(=O)N(C)[C@@H](C(C)C)C(=O)N1C	inactive

----------
Target: Cytochrome P450 2D6 (Homo sapiens) (UniProt P10635)
Assay: Cytochrome panel assay with activity outcomes
Settings: recombinant CYP, pro-luciferin dealkylation, luminescence, p450-cyp2d6; series mostly up to 57.1 µM
Out of some 16,000 compounds screened, about 2,600 (16%) were called active. Inconclusive results (about 20%) are left out. These entries were drawn from the full list.
measured quantity: AC50

Observe how each entry below is paired with its result.
> print(dat)
                                smiles.repr  measured.quantity     readout.value
1      CN1CC[C@@]2(CCCN(C(=O)c3cccn3C)C2)C1               AC50          inactive
2    Cn1cccc1C(=O)N1CCC2(CC1)CN(c1ccncc1)C2               AC50          inactive
3    c1ccc(-c2ccc3c(c2)c2c4n3CCN=C4CCC2)cc1               AC50          inactive
4  Cn1cccc1C(=O)N1CCC2(CCCN(Cc3ccncc3)C2)CC1               AC50  7.94 µM (active)

Now turn to the next compound.
### Prompt Can you look up the measured AC50 of Cc1cccc(NC(=S)NC(=O)c2cc(-c3ccccc3)nc3ccccc23)c1 for me?
### Response inactive

----------
Target: Cytochrome P450 2D6 (Homo sapiens)
Test: Cytochrome panel assay with activity outcomes
Conditions: recombinant CYP, pro-luciferin dealkylation, luminescence, p450-cyp2d6; series mostly up to 57.1 µM
Screen size: about 16,000 compounds; about 2,600 (16%) were called active. Not shown: some 20% with an inconclusive outcome. Calls follow the shape of the dose curve; as a rule, active = well fitted curve in the direction sought with a large enough effect; inconclusive = small, poorly fitted or top-dose-only effect, or effect the other way; inactive = no such curve, though single readings can be large or run the other way. Not all results are given here.
Bench note: report the call from t (active), f (inactive)

> print(dat)
                                   molecule  category.label
1  CCC1OC23CCCCC2C(C#N)(C(=N)O3)C1(C#N)C#N (configuration not stated)               f

### Prompt Could you kindly confirm the outcome this assay logged for C[C@@H](CN1CCC(Cc2ccccc2)CC1)[C@H](O)c1ccc(O)cc1 ?
### Response t

### Prompt Assay result, entry Cc1cccc(NC(=S)NNC(=O)CC(C)O)c1C (configuration not stated) — outcome?
### Response f

### Prompt Which outcome was entered for the molecule CC(=O)N1CC2(CC2)CC1c1ccccc1 (configuration not stated) in this test?
### Response f

### Prompt Which outcome did this test record for the molecule Cc1ccc(S(=O)(=O)N2CCN(C(=O)c3ccccc3)C2C(C)C)cc1 (configuration not stated) ?
### Response t
